All values here come from the supplement of paper PMC11061612.

# combination Emax per entry
- Test system: SU-DHL-6 (B-Cell Non-Hodgkin's Lymphoma)
- Assay Explanation: combination Emax (second highest fraction inhibited in the dose matrix, 72 h); higher = more inhibition; extreme values may be limits of the assay
Endpoint Label: combination Emax

>  <Molecule>
O=C(c1cc(Cc2n[nH]c(=O)c3ccccc23)ccc1F)N1CCN(C(=O)C2CC2)CC1 [Olaparib] + Cc1c2c(nn1C)CSCc1cc(n(C)n1)CSc1cc(c3ccccc3c1)OCCCc1c(C(=O)O)n(C)c3c-2c(Cl)ccc13 [AZD5991] (first compound max 10 µM, 7x7, partner max 1 µM)

>  <Val>
1

$$$$
>  <Molecule>
CN(CCO)CC[C@H](CSc1ccccc1)Nc1ccc(S(=O)(=O)NC(=O)c2ccc(N3CCC([C@@H](O)c4ccccc4-c4ccc(Cl)cc4)CC3)cc2)cc1S(=O)(=O)C(F)(F)F [AZD4320] + CC(=O)O[C@H]1C(=O)[C@@]2(C)[C@H]([C@H](OC(=O)c3ccccc3)[C@]3(O)C[C@H](OC(=O)[C@H](O)[C@@H](NC(=O)c4ccccc4)c4ccccc4)C(C)=C1C3(C)C)[C@]1(OC(C)=O)CO[C@@H]1C[C@@H]2O [Paclitaxel] (first compound max 1 µM, 7x7, partner max 3 µM)

>  <Val>
1

$$$$
>  <Molecule>
CCc1c2c(nc3ccc(O)cc13)-c1cc3c(c(=O)n1C2)COC(=O)[C@]3(O)CC [SN-38] + CN(C)CCCOc1ccc(-c2ccc3ncc4c(c3c2)n(C2CCOCC2)c(=O)n4C)cn1 [AZD0156] (first compound max 0.3 µM, 7x7, partner max 1 µM)

>  <Val>
0.987

$$$$
